- tested target: UniProt P00439
- method description: SPR screening and affinity determination on immobilized hPAH (Biacore T200)
- Assay type: binding
- experimental setup: SPR, 25° C., compound 0-500 μM in 5% DMSO; affinities said to be overestimated, relative KD reliable; read-out: KD (μM) ± SER
- Experimental: For detailed determination of binding affinity of Compound 53 and derivatives (FIG. 4) SPR was performed on a Biacore T200 (GE Healthcare Life Sciences) at a temperature of 25° C. […] In addition and for the rest of the compounds which continued our workflow, binding affinities were determined and the results are shown in the following table. […]
API: label(entry) gives class 1 if the entry's Kd is strictly smaller than 80 µM; on equality or larger values it gives class 0.

See these solved cases before continuing.
COc1ccc(C2CC(=O)Nc3nc(N)[nH]c(=O)c32)cc1 (racemic); class 1
COc1cc(C2CC(=O)Nc3nc(N)ccc32)cc(Cl)c1OC (racemic); class 0
COc1cc(Cc2cnc(N)nc2N)cc(OC)c1OC; class 1
Nc1nc2c(c(=O)[nH]1)C(c1cccc(Cl)c1)CC(=O)N2 (racemic); class 1
Nc1ncc(Cc2ccc3c(c2)OCO3)c(N)n1; class 1
Nc1ccc2c(n1)NC(=O)CC2c1ccc2c(c1)OCCO2 (racemic); class 0
COc1cccc(C2CC(=O)Nc3nc(N)[nH]c(=O)c32)c1 (racemic); class 1
Nc1nc2c(c(=O)[nH]1)C(c1cccc3ccccc13)CC(=O)N2 (racemic); class 1
Nc1nc2c(c(=O)[nH]1)C(c1ccc3c(c1)OCO3)CC(=O)N2 (racemic) [c53.35]; class 1
Nc1nc(N)c(Cc2ccc3c(c2)OCO3)c(N)n1; class 1

Please check: Kd for COc1cc(C(c2c[nH]c3ccccc23)c2c[nH]c3ccccc23)cc(OC)c1OC , strictly under 80 µM or not?
class 0

Please check: Kd for Nc1nc2c(c(=O)[nH]1)C(c1ccc(Cl)cc1Cl)CC(=O)N2 (racemic) , strictly under 80 µM or not?
class 1

###

Listing: PAH activity-cells (%) of selected molecules
- tested target: human wild-type PAH (Homo sapiens)
- Construct: expressed in transfected cells
- Sequence (P00439 1-452): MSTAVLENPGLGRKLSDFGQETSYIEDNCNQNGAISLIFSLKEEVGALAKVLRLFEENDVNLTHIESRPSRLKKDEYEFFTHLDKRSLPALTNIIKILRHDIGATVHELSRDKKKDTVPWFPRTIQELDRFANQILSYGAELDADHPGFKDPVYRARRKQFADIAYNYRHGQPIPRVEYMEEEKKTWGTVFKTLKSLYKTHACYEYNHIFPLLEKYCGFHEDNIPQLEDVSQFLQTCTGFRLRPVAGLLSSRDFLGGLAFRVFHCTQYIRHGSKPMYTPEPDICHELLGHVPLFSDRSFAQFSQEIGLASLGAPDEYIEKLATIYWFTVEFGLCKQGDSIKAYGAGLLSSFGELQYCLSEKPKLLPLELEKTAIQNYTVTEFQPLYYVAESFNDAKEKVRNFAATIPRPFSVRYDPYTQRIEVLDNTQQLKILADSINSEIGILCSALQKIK
- method description: PAH activity in lysates of HEK293 cells permanently expressing human wild-type PAH
- Type: cell-based
- experimental setup: 0.04 mg/ml compound, 1% DMSO, 8 h; Table 3
Write the number in % without appending the unit.

Example results:
Nc1nc2c(c(=O)[nH]1)C(c1ccc(Cl)cc1)CC(=O)N2 (racemic); 154
COc1cccc(C2CC(=O)Nc3nc(N)[nH]c(=O)c32)c1 (racemic); 206

Noted for COc1ccc(C2CC(=O)Nc3nc(N)[nH]c(=O)c32)cc1 (racemic) : its PAH activity-cells (%) reads 170

Noted for COc1ccc(C2CC(=O)Nc3nc(N)[nH]c(=O)c32)cc1OC (racemic) : its PAH activity-cells (%) reads 146

Noted for Nc1ncc(Cc2ccc3c(c2)OCO3)c(N)n1 : its PAH activity-cells (%) reads 119

Noted for COc1ccc(C2CC(=O)Nc3nc(N)ccc32)cc1O (racemic) : its PAH activity-cells (%) reads 125

Noted for COc1ccc(Cc2cnc(N)nc2N)cc1OC : its PAH activity-cells (%) reads 130

Noted for CSc1nc2c(c(=O)[nH]1)C(c1ccc3c(c1)OCO3)CC(=O)N2 (racemic) : its PAH activity-cells (%) reads 109

Noted for Nc1nc(N)c(Cc2ccc3c(c2)OCO3)c(N)n1 : its PAH activity-cells (%) reads 175

Noted for COc1cc(Cc2cnc(N)nc2N)cc(OC)c1OC : its PAH activity-cells (%) reads 148

###

Listing: PAH activity-cells (%) of selected compounds
- tested target: human wild-type PAH (Homo sapiens, UniProt P00439)
- Construct: expressed in transfected cells
- method description: PAH activity in lysates of HEK293 cells permanently expressing human wild-type PAH
- Format: cell-based
- experimental setup: 0.04 mg/ml compound, 1% DMSO, 8 h; Table 3
Write the number in % without appending the unit.

Example results:
COc1cc(Cc2ccc(N)nc2N)cc(OC)c1OC [c53.4]; 165
Nc1nc2c(c(=O)[nH]1)C(c1ccc3c(c1)OCO3)CC(=O)N2 (racemic) [c53.17]; 206
COc1cc(C2CC(=O)Nc3nc(N)ccc32)cc(Cl)c1OC (racemic) [c53.29]; 155

Noted for Nc1nc2c(c(=O)[nH]1)C(c1ccc(Cl)cc1Cl)CC(=O)N2 (racemic) [c53.10] : its PAH activity-cells (%) reads 155

Noted for CCOc1ccc(Cc2cnc(S)nc2N)cc1 [c53.6] : its PAH activity-cells (%) reads 120

###

- tested target: hPAH (Homo sapiens, UniProt P00439)
- method description: SPR screening and affinity determination on immobilized hPAH (Biacore T200)
- Type: binding
- experimental setup: SPR, 25° C., compound 0-500 μM in 5% DMSO; affinities said to be overestimated, relative KD reliable; read-out: KD (μM) ± SER
reported property: Kd (µM)
Write the number in µM without appending the unit.

CCOc1ccc(Cc2cnc(S)nc2N)cc1 [c53.6]; 103
COc1ccc(C2CC(=O)Nc3nc(N)[nH]c(=O)c32)cc1OC (racemic) [c53.16]; 76.3
COc1ccc(Cc2cnc(N)nc2N)cc1OC [c53.1]; 104
Nc1nc2c(c(=O)[nH]1)C(c1ccc(Cl)cc1)CC(=O)N2 (racemic) [c53.22]; 30.1

Noted for COc1ccc(C2CC(=O)Nc3nc(N)ccc32)c(OC)c1OC (racemic) [c53.33] : its Kd reads 182

###

- tested target: hPAH (Homo sapiens)
- Sequence (P00439 1-452): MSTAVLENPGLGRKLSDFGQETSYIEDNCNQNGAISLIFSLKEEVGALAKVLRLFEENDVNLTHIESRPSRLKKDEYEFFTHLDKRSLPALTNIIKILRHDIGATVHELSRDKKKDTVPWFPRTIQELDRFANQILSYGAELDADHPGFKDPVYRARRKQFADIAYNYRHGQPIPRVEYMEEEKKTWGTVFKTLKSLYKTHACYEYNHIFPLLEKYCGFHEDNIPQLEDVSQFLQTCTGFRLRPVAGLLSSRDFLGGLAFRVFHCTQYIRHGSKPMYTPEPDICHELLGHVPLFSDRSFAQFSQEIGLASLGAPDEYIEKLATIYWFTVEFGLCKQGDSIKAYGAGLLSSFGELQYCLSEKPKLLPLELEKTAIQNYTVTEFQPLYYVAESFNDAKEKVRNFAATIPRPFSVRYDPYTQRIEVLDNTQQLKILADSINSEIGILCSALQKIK
- method description: SPR screening and affinity determination on immobilized hPAH (Biacore T200)
- Format: binding
- experimental setup: SPR, 25° C., compound 0-500 μM in 5% DMSO; affinities said to be overestimated, relative KD reliable; read-out: KD (μM) ± SER
- Procedure: For detailed determination of binding affinity of Compound 53 and derivatives (FIG. 4) SPR was performed on a Biacore T200 (GE Healthcare Life Sciences) at a temperature of 25° C. […] In addition and for the rest of the compounds which continued our workflow, binding affinities were determined and the results are shown in the following table. […]
reported property: Kd
Answers without a unit are incomplete; give the number and then its unit.

Example results:
COc1ccc(C2CC(=O)Nc3nc(N)ccc32)cc1O (racemic) [c53.31]; 55.9 µM
CSc1nc2c(c(=O)[nH]1)C(c1ccc3c(c1)OCO3)CC(=O)N2 (racemic) [c53.26]; 62.1 µM
Nc1nc2c(c(=O)[nH]1)C(c1ccc3c(c1)OCO3)CC(=O)N2 (racemic) [c53.17]; 11 µM

Now for the compound whose Kd we want.
Noted for COc1cc(Cc2ccc(N)nc2N)cc(OC)c1OC [c53.4] : its Kd reads 45.2 µM
